Target: human collagen type I (acid soluble, extracted from placenta, Sigma C7774) (human) (UniProt P02452)
Sequence (P02452 162-1218 limits assumed, chain 1 of 2): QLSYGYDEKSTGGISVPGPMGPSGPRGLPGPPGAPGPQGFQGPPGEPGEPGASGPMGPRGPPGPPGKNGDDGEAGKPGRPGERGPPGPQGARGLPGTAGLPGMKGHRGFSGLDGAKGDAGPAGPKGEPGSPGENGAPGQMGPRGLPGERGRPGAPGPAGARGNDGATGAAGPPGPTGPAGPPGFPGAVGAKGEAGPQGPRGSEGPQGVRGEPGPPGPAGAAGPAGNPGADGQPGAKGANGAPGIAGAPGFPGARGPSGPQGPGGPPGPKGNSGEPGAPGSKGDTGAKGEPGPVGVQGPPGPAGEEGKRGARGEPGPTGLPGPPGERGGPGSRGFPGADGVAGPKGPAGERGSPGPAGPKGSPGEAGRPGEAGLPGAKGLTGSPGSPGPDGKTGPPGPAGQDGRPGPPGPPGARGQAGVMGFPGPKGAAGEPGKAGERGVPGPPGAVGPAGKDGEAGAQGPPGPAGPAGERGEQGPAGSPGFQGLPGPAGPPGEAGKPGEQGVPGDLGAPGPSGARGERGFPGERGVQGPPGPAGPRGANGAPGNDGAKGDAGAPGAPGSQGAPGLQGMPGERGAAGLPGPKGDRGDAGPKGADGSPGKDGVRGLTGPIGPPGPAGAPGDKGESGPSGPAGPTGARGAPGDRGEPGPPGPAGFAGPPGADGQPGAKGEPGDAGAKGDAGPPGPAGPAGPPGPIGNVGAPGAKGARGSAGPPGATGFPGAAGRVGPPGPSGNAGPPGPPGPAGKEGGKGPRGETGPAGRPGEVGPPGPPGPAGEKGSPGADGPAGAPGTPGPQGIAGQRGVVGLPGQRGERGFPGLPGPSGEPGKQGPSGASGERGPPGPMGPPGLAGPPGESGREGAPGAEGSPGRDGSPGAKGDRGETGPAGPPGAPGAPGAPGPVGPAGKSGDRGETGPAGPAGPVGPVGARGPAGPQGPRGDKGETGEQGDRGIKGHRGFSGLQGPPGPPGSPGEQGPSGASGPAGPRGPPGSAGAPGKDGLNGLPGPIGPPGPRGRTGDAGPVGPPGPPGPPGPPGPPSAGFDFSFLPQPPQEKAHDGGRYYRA
Sequence (P08123 80-1119 limits assumed, chain 2 of 2, further chain): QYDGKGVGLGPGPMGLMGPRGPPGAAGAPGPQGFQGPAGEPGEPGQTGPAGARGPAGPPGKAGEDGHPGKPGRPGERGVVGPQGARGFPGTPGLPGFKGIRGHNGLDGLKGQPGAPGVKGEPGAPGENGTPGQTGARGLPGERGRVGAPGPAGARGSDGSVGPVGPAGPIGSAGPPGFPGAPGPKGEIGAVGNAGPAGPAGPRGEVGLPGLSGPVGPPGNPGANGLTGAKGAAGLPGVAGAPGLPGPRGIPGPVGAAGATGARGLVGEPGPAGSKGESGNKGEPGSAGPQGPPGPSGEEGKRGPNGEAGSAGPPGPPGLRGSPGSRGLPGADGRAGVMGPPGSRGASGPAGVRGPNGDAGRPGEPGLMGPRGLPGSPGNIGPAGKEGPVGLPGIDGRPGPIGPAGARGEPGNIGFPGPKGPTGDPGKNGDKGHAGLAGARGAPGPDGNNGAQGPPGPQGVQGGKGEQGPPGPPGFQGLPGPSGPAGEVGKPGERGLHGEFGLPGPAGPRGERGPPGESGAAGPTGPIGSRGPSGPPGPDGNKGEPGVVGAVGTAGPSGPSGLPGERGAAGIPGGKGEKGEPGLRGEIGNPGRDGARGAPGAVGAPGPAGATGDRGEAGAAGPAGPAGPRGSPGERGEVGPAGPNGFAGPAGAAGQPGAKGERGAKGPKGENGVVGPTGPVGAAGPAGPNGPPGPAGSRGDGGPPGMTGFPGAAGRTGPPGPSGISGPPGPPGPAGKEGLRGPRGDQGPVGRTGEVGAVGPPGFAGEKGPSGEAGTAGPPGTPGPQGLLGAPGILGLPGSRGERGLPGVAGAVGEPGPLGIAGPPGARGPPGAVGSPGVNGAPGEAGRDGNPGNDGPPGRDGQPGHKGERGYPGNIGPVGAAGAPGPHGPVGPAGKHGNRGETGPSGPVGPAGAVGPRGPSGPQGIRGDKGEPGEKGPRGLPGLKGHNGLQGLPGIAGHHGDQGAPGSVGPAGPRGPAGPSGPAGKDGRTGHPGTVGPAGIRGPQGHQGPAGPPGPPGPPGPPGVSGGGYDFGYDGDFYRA
Experiment: dried collagen assay, 5 uM each
REPORTED_METRIC: Human binding (%)

GKWHCTTLFPHHVCLYG [Compound ID 966] ... 14

1. GQWTCSGDEYAWHCNYE [Compound ID 832]
2. DWTCSYDEYTWHCNYE [Compound ID 829]
Enquiry: Out of 1 and 2 , name the one with the higher Human binding. Identify your pick by its label.
Return: 2
